Molecular target: hCB1 (Homo sapiens)
Sequence (P21554 whole entry): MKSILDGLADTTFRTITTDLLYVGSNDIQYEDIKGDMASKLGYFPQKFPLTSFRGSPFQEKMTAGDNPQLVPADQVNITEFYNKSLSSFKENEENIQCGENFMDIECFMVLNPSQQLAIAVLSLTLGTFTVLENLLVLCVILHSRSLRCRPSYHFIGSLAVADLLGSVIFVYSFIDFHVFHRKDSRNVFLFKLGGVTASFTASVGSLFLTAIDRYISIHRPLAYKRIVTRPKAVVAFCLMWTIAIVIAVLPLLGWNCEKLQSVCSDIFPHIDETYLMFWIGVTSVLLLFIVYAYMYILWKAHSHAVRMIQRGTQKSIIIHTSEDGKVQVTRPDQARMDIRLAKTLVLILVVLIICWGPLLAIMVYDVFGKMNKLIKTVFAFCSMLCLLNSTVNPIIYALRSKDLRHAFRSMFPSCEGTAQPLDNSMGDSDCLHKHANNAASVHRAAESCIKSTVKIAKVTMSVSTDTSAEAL
Experiment: bioSensAll ebBRET signaling profiling, hCB1
Type: cell-based
Set-up: host or cells: HEK293SL cells, transient PEI transfection
Details: Gi1 biosensor; Log [Compound] (M) -12.3979
// NB: equality with -10 counts as rule not met; only Gi1 hCB1 response strictly below is rule met

Observe how each entry below is paired with its result.
COC(=O)[C@@H]1[C@@H]2CCC[C@@H]2CN1C(=O)c1cc(C)n(-c2cccc(Cl)c2)n1 (racemic)	rule met
COC(=O)[C@@H]1[C@@H]2CCC[C@@H]2CN1C(=O)c1cc(C)n(-c2cccc(C(F)(F)F)c2)n1	rule not met
Cc1cc(C(=O)NC(c2ccccc2)c2ccco2)nn1-c1cccc(C#N)c1 (centres unmarked)	rule met
Cc1cc(C(=O)N2CC3(CCC3)[C@H]2[C@H]2CCCO2)nn1-c1cccc(C(F)(F)F)c1	rule not met

Now let's try a different one.
INPUT: Identify whether the compound CC(=O)C(c1cccs1)N(C)C(=O)c1cc(C)n(-c2cccc(C(F)(F)F)c2)n1 (centres unmarked) records Gi1 hCB1 response below -10.
OUTPUT: rule met
